Every entry's value here was drawn from the RepoRT retention time repository (doi:10.1016/j.scitotenv.2015.08.078).

assay: RP, Waters ACQUITY UPLC BEH C18, 100 × 2.1 mm, 1.7 µm, 0.3 mL/min, estimated dead time 0.73 min; A: water + 0.1% formic acid, pH 3; B: methanol + 0.1% formic acid, pH 3; gradient (min/%B) 0/10 14/90 16/90 18/10; conditions: stereoisomer not certain
Provide the reported LC retention time of each item.
Please give a number only; it is taken to be in min.

Exam item: Tell me measured LC retention time for CNC(=O)Oc1cc(C)c(S(C)=O)c(C)c1 (stereo not drawn) [Methiocarb sulfoxide] please.
Marked response: 4.6

Exam item: Tell me measured LC retention time for O=C(Nc1ccccc1)Nc1ccnc(Cl)c1 [Forchlorfenuron] please.
Marked response: 8.95

Exam item: Tell me measured LC retention time for CCC1OC(=O)C(C)C(OC2CC(C)(OC)C(O)C(C)O2)C(C)C(OC2OC(C)CC(N(C)C)C2O)C(C)(O)CC(C)C(=O)C(C)C(O)C1(C)O (stereo not drawn) [Erythromycin] please.
Marked response: 9.41

Exam item: Tell me measured LC retention time for CC(Oc1ccc(Oc2nc3ccc(Cl)cc3o2)cc1)C(=O)O (stereo not drawn) [Fenoxaprop] please.
Marked response: 11.6

Exam item: Tell me measured LC retention time for CC(C)NCC(O)COc1cccc2[nH]c3ccccc3c12 (stereo not drawn) [Carazolol] please.
Marked response: 6.24

Exam item: Tell me measured LC retention time for CCCCCCCCn1sccc1=O [Octhilinone (2-Octyl-4-isothiazoline-3-one)] please.
Marked response: 11

Exam item: Tell me measured LC retention time for CC(CCc1ccc(O)cc1)NCC(O)c1ccc(O)cc1 (stereo not drawn) [Ractopamine] please.
Marked response: 4.5

Exam item: Tell me measured LC retention time for CCc1cccc(CC)c1N(COC)C(=O)CCl [Alachlor] please.
Marked response: 11.7

Exam item: Tell me measured LC retention time for CCC(C)C1OC2(C=CC1C)CC1CC(CC=C(C)C(OC3CC(OC)C(OC4CC(OC)C(NC)C(C)O4)C(C)O3)C(C)C=CC=C3COC4C(O)C(C)=CC(C(=O)O1)C34O)O2 (stereo not drawn) [Emamectin B1a] please.
Marked response: 13.8

Exam item: Tell me measured LC retention time for CCOc1ccc(C(C)(C)COCc2cccc(Oc3ccccc3)c2)cc1 [Ethofenprox] please.
Marked response: 15.1

Exam item: Tell me measured LC retention time for CCC(C)C1OC2(C=CC1C)CC1CC(CC=C(C)C(OC3CC(OC)C(OC4CC(OC)C(O)C(C)O4)C(C)O3)C(C)C=CC=C3COC4C(O)C(C)=CC(C(=O)O1)C34O)O2 (stereo not drawn) [Abamectin B1a] please.
Marked response: 13.5

Exam item: Tell me measured LC retention time for CCCSP(=S)(OCC)Oc1ccc(SC)cc1 (stereo not drawn) [Sulprofos] please.
Marked response: 14.2

Exam item: Tell me measured LC retention time for CCCCCc1cc(O)c2c(c1)OC(C)(C)C1CC(O)C(C)=CC21 (stereo not drawn) [OH-THC] please.
Marked response: 13.9

* * *

assay: RP, Waters ACQUITY UPLC BEH C18, 100 × 2.1 mm, 1.7 µm, 0.3 mL/min, estimated dead time 0.73 min; A: water + 0.1% formic acid, pH 3; B: methanol + 0.1% formic acid, pH 3; gradient (min/%B) 0/10 14/90 16/90 18/10; conditions: stereoisomer not certain
Response field label: string, one of Criterion met (LC retention time strictly below 10 min) or Criterion not met.

Exam item: Please indicate whether the reported LC retention time of CC(C)=NOCCOC(=O)C(C)Oc1ccc(Oc2cnc3cc(Cl)ccc3n2)cc1 (centres undefined) is strictly below 10 min.
Marked response: Criterion not met

Exam item: Please indicate whether the reported LC retention time of Nc1c(Cl)c(F)nc(OCC(=O)O)c1Cl is strictly below 10 min.
Marked response: Criterion met

Exam item: Please indicate whether the reported LC retention time of CCOP(=S)(OCC)SCn1c(=O)oc2cc(Cl)ccc21 is strictly below 10 min.
Marked response: Criterion not met

Exam item: Please indicate whether the reported LC retention time of CC(N)Cc1ccccc1 (centres undefined) is strictly below 10 min.
Marked response: Criterion met

Exam item: Please indicate whether the reported LC retention time of COc1cc2c(c3oc(=O)c4c(c13)CCOC4=O)C1CCOC1O2 (centres undefined) is strictly below 10 min.
Marked response: Criterion met

Exam item: Please indicate whether the reported LC retention time of CCCCc1c(C)nc(NCC)nc1OS(=O)(=O)N(C)C [Bupirimate] is strictly below 10 min.
Marked response: Criterion not met

Exam item: Please indicate whether the reported LC retention time of Clc1ccc(CSC(Cn2cncn2)=Nc2ccc(Cl)cc2Cl)cc1 is strictly below 10 min.
Marked response: Criterion not met

Exam item: Please indicate whether the reported LC retention time of COc1c(N2CC3CCCNC3C2)c(F)cc2c(=O)c(C(=O)O)cn(C3CC3)c12 (centres undefined) is strictly below 10 min.
Marked response: Criterion met

Exam item: Please indicate whether the reported LC retention time of O=C(O)c1ccccc1C(=O)Nc1cccc2ccccc12 is strictly below 10 min.
Marked response: Criterion met

Exam item: Please indicate whether the reported LC retention time of Cc1c(NC=O)c(=O)n(-c2ccccc2)n1C [4-formylamino-Antipyrine] is strictly below 10 min.
Marked response: Criterion met

Exam item: Please indicate whether the reported LC retention time of CNC(=O)CSP(=S)(OC)OC [Dimethoate] is strictly below 10 min.
Marked response: Criterion met

Exam item: Please indicate whether the reported LC retention time of CC(C)=CC1C(C(=O)OCc2coc(Cc3ccccc3)c2)C1(C)C (centres undefined) is strictly below 10 min.
Marked response: Criterion not met

Exam item: Please indicate whether the reported LC retention time of CCC1CCCC(OC2CCC(N(C)C)C(C)O2)C(C)C(=O)C2=CC3C(C=C(C)C4CC(OC5OC(C)C(OC)C(OC)C5OC)CC43)C2CC(=O)O1 (centres undefined) [Spinosyn D] is strictly below 10 min.
Marked response: Criterion not met

Exam item: Please indicate whether the reported LC retention time of Clc1ccc(C2(Cn3cncn3)OCCO2)c(Cl)c1 is strictly below 10 min.
Marked response: Criterion met

Exam item: Please indicate whether the reported LC retention time of CC(CN1c2ccccc2Sc2ccccc21)N(C)C (centres undefined) is strictly below 10 min.
Marked response: Criterion met

Exam item: Please indicate whether the reported LC retention time of O=C1OC(CN2CCOCC2)CN1N=Cc1ccc([N+](=O)[O-])o1 (centres undefined) is strictly below 10 min.
Marked response: Criterion met
